Tested on: JEG-3
protocol summary: Primary qHTS to identify gynecologic anti-cancer compounds using libraries of approved drugs and bioactive compounds (AID 1345084); also: potency is read from the fitted curve at half-maximal effect; nearly all actives have a fitted effect of over 55% in size
experimental setup: Gynecologic cancer cell panel viability, ATPlite luminescence, 48 h; series mostly up to 57.5 µM
Results filed as inconclusive are left out. Active and inactive are the calls of the source. Calls follow the shape of the dose curve; as a rule, active = well fitted cell-killing curve with a large enough effect; inconclusive = small, poorly fitted or top-dose-only effect, or effect the other way; inactive = flat fitted curve, though single readings scatter.
Reported Potency values follow for various compounds

Reference set (7 entries):
>  <compound>
Cc1cc(C)cc(C(=O)NOCCCCCC(=O)NO)c1

>  <study target>
JEG-3

>  <Potency>
3.16 µM (active)

$$$$
>  <compound>
CCN1CCN(Cc2ccc(NC(=O)c3ccc(C)c(NC(=O)c4cncc(-c5cccs5)c4)c3)cc2C(F)(F)F)CC1

>  <study target>
JEG-3

>  <Potency>
25.1 µM (active)

$$$$
>  <compound>
CN(C)c1ccc2c(c1)OC(N)=C(C#N)C2c1cccc(C(F)(F)F)c1 (stereo not drawn)

>  <study target>
JEG-3

>  <Potency>
0.282 µM (active)

$$$$
>  <compound>
COc1ccc(-c2cnc(-c3cccc4c3-c3ccccc3C4=O)o2)cc1

>  <study target>
JEG-3

>  <Potency>
2 µM (active)

$$$$
>  <compound>
COc1c/c(=C2\C=c3ccccc3=N2)[nH]/c1=C\c1[nH]c(C)cc1C

>  <study target>
JEG-3

>  <Potency>
7.94 µM (active)

$$$$
>  <compound>
COc1ccc(C(=O)Nc2ncc(-c3ccc(C(=O)O)cc3)s2)cc1

>  <study target>
JEG-3

>  <Potency>
15.8 µM (active)

$$$$
>  <compound>
N#CC(c1ccnc(OCc2ccc(CN3CCOCC3)cc2)n1)c1nc2ccccc2s1 (stereo not drawn)

>  <study target>
JEG-3

>  <Potency>
10 µM (active)

$$$$

Here's the next entry for you.
Could you share what Potency was measured for COc1cc2c(NC3CCN(CC4CCCCC4)CC3)nc(N3CCCN(C(C)C)CC3)nc2cc1OCCCN1CCCCC1 , tested on JEG-3?
5.62 µM (active)

---

study target: Calcium and integrin-binding protein 1 (Homo sapiens) (UniProt Q99828)
Sequence (Q99828 whole entry, looked up): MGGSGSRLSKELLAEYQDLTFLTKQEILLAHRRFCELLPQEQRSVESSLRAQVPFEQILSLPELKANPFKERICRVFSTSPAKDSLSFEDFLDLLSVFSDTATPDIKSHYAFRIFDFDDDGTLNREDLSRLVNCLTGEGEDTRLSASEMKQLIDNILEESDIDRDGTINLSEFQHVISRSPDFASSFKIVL
protocol summary: Primary qHTS for Identification of Calcium Integrin Binding Protein 1 (CIB1) Competitor (AID 1508620);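 also: GST tagged CIB1 binding a fluorescein labelled alphaIIb integrin peptide tracer; top concentration of the series differs between compounds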
experimental setup: CIB1-GST / FITC-alphaIIb peptide fluorescence polarization; series mostly up to 114 µM
Results filed as inconclusive are left out. Calls of active or inactive are those of the source. The call rests on the fitted dose curve; in most records, active means well fitted inhibition curve with a large enough effect; inconclusive means small, poorly fitted or top-dose-only effect; inactive means flat fitted curve, though single readings scatter.
recorded metric: activity change, negative = inhibition

Reference set (5 entries):
>  <compound>
Cc1cc(C)c2c(N)c(C(=O)NCc3ccc(Cl)cc3)sc2n1

>  <activity change, negative = inhibition>
inactive

$$$$
>  <compound>
CC(=O)O[C@@H]1C[C@H](O)[C@@]23CO[C@H](O)[C@]1(C)C2C[C@@H](O)[C@]1(C)C3C(=O)[C@H](OC(C)=O)[C@@]2(C)[C@H](c3ccoc3)C[C@H]3O[C@]321 (stereo partly specified)

>  <activity change, negative = inhibition>
inactive

$$$$
>  <compound>
CC(C)[C@@H](CS(=O)(=O)C(C)C)N1C(=O)[C@@](C)(CC(=O)O)C[C@H](c2cccc(Cl)c2)[C@H]1c1ccc(Cl)cc1

>  <activity change, negative = inhibition>
inactive

$$$$
>  <compound>
CO[C@H]1/C=C/[C@@](C)(O)/C=C/C(=O)O[C@H](C)[C@@H](C)CC/C=C/1C

>  <activity change, negative = inhibition>
inactive

$$$$
>  <compound>
C[C@@H]1CN(Cc2ncccn2)C[C@H]1c1nc2c(cnn2C2CCOCC2)c(=O)[nH]1

>  <activity change, negative = inhibition>
inactive

$$$$

Which activity change, negative = inhibition reading was recorded for the compound Cc1cc(OCc2nc(-c3ccccc3Cl)cs2)ccc1OCC(=O)O ?
inactive

Which activity change, negative = inhibition reading was recorded for the compound COc1cc2ncnc(Nc3ccc(O)cc3)c2cc1OC ?
inactive
